test: Timed organ biodistribution of [^64Cu]Cu-DOTATATE by ex vivo gamma counting; assay type: in vivo, mice; settings: mouse, large intestine, intravenous, 1.85 MBq, total radioactivity; female C57BL/6 mice, 120 min after injection, median (IQR), N=3-7; read-out: Tissue radioactivity, large intestine
MEASURED METRIC: tissue uptake at 2 h (%ID/g)
Quick reminder: number only, in %ID/g, skip the unit.

# tissue uptake at 2 h lookup, item C[C@@H](O)[C@H](NC(=O)[C@@H]1CSSC[C@H](NC(=O)[C@@H](Cc2ccccc2)NC(=O)CN2CCN(CC(=O)O)CCN(CC(=O)O)CCN(CC(=O)O)CC2)C(=O)N[C@@H](Cc2ccc(O)cc2)C(=O)N[C@H](Cc2c[nH]c3ccccc23)C(=O)N[C@@H](CCCCN)C(=O)N[C@@H]([C@@H](C)O)C(=O)N1)C(=O)O [[^64Cu]Cu-DOTATATE, metal not drawn]
3.1

The origin of these recorded values is paper PMC9007951.
